# Target or test system: NRAS G12C (Homo sapiens (Human), UniProt P01111+P62937, G12C)
# Sequence (P01111 whole entry G12C): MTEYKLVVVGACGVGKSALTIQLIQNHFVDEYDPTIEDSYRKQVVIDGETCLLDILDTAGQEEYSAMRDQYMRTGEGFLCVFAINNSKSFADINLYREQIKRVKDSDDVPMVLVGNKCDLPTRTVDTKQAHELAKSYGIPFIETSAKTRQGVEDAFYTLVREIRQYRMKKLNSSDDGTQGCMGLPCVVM
# Sequence (P62937 whole entry): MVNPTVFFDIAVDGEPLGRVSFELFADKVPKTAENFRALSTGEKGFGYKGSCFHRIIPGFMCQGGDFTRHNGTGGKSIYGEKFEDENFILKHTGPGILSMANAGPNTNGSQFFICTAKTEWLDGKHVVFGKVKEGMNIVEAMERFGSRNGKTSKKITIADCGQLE
# Experiment notes: Ras-Raf (BRAF RBD) disruption / FRET / MOA assay, NRAS G12C
# Assay type: biochemical
# Experimental parameters: read-out: IC50* NRAS G12C FRET data
Reported IC50 values follow for various compounds
Property name: IC50

[[record]]
compound = "CCn1c(-c2cccnc2[C@H](C)OC)c2c3cc(ccc31)-c1cccc(c1)C[C@H](NC(=O)[C@H](C(C)C)N(C)C(=O)[C@H]1CCN(C(=O)/C=C/C(F)F)C1)C(=O)N1CCC[C@H](N1)C(=O)OCC(C)(C)C2 (atropisomer, axis not shown)"
property_name = "IC50"
result = "10 to 100 nM"

[[record]]
compound = "CO[C@@H](C)c1ncc(N2CCN(C)CC2)cc1-c1c2c3cc(ccc3n1CC(F)(F)F)-c1cccc(c1)C[C@H](NC(=O)[C@H](C(C)C)N(C)C(=O)C1(F)CCN(C(=O)C#CC(C)(C)N(C)C)CC1)C(=O)N1CCC[C@H](N1)C(=O)OCC(C)(C)C2 (atropisomer, axis not shown)"
property_name = "IC50"
result = "< 10 nM"


* * *

# Target or test system: NRAS WT (Homo sapiens (Human), UniProt P01111+P62937)
# Sequence (P01111 whole entry): as the sequence (P01111 whole entry G12C) above, with C12G counted along it
# Sequence (P62937 whole entry): as the sequence (P62937 whole entry) above
# Experiment notes: Ras-Raf (BRAF RBD) disruption / FRET / MOA assay, NRAS WT
# Format: biochemical
# Experimental parameters: read-out: IC50* NRAS WT FRET data
pIC50: −log10 of the molar value.
Property name: pIC50

[[record]]
compound = "C=CC(=O)N1CCN(C(=O)N(C)[C@H](C(=O)N[C@H]2Cc3cc(O)cc(c3)-c3ccc4c(c3)c(c(-c3cccnc3[C@H](C)OC)n4CC)CC(C)(C)COC(=O)[C@@H]3CCCN(N3)C2=O)C(C)C)CC1 (atropisomer, axis not shown)"
result = "7.00 to 8.00"

[[record]]
compound = "CCn1c(-c2cccnc2[C@H](C)OC)c2c3cc(ccc31)-c1csc(n1)C[C@H](NC(=O)C[C@@H](C)OC1CN(C(=O)C#CC(C)(C)N(C)C)C1)C(=O)N1CCC[C@H](N1)C(=O)OCC(C)(C)C2 (atropisomer, axis not shown)"
result = "5.00 to 6.00"

[[record]]
compound = "CCn1c(-c2cccnc2[C@H](C)OC)c2c3cc(ccc31)-c1csc(n1)C[C@H](NC(=O)[C@H](C(C)C)N(C)C(=O)N(C)C1CN(C(=O)/C=C/C3CN(C)C3)C1)C(=O)N1CCC[C@H](N1)C(=O)OCC(C)(C)C2 (atropisomer, axis not shown)"
result = "6.00 to 7.00"

[[record]]
compound = "C=CC(=O)N1CCCC2(CCN(C(=O)N(C)[C@H](C(=O)N[C@H]3Cc4nc(cs4)-c4ccc5c(c4)c(c(-c4cccnc4[C@H](C)OC)n5CC)CC(C)(C)COC(=O)[C@@H]4CCCN(N4)C3=O)C(C)C)CC2)C1 (atropisomer, axis not shown)"
result = "6.00 to 7.00"

[[record]]
compound = "CCn1c(-c2cccnc2[C@H](C)OC)c2c3cc(ccc31)-c1cccc(c1)C[C@H](NC(=O)[C@@H](CO[C@H]1CCN(C(=O)C#CC(C)(C)N(C)C)C1)C(C)C)C(=O)N1CCC[C@H](N1)C(=O)OCC(C)(C)C2 (atropisomer, axis not shown)"
result = "5.00 to 6.00"

[[record]]
compound = "CCn1c(-c2cccnc2[C@H](C)OC)c2c3cc(ccc31)N1CCO[C@@H](C[C@H](NC(=O)[C@H](C(C)C)N3CC[C@@]4(CCN(C(=O)C#CC(C)(C)N(C)C)C4)C3=O)C(=O)N3CCC[C@H](N3)C(=O)OCC(C)(C)C2)C1 (atropisomer, axis not shown)"
result = "< 5.00"

[[record]]
compound = "CO[C@@H](C)c1ncccc1-c1c2c3cc(ccc3n1CC(F)(F)F)-c1cc(CF)cc(c1)C[C@H](NC(=O)[C@@H](COC1CN(C(=O)C#CC(C)(C)N(C)C)C1)C(C)C)C(=O)N1CCC[C@H](N1)C(=O)OCC(C)(C)C2 (atropisomer, axis not shown)"
result = "5.00 to 6.00"


* * *

# Target or test system: K-Ras G12C (Homo sapiens (Human), UniProt P01116+P62937, G12C)
# Sequence (P01116-2 other isoform, or with tags, fused parts or gaps G12C, one chain of several): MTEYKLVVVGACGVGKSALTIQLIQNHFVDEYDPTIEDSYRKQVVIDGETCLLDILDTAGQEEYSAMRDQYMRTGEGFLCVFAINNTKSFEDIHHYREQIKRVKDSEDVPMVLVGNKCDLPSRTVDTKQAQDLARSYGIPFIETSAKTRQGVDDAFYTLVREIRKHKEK
# Experiment notes: Ras-Raf (BRAF RBD) disruption / FRET / MOA assay, KRAS G12C
# Format: biochemical
# Experimental parameters: KRAS G12C; Ras-Raf disruption/FRET/MOA assay; read-out: IC50* KRAS G12C FRET data
pIC50: −log10 of the molar value.
Property name: pIC50

[[record]]
molecule = "C=CC(=O)N1CCOC2(C1)CN(C(=O)N(C)[C@H](C(=O)N[C@H]1Cc3nc(cs3)-c3ccc4c(c3)c(c(-c3cccnc3[C@H](C)OC)n4CC(F)(F)F)CC(C)(C)COC(=O)[C@@H]3CCCN(N3)C1=O)C(C)C)C2 (atropisomer, axis not shown)"
result = "6.00 to 7.00"

[[record]]
molecule = "CCn1c(-c2ccccc2CN(C)C)c2c3cc(ccc31)-c1cc(O)cc(c1)C[C@H](NC(=O)[C@H](C(C)C)N(C)C(=O)c1ncc(NC(=O)/C=C/CN(C)C)s1)C(=O)N1CCC[C@H](N1)C(=O)OCC(C)(C)C2 (atropisomer, axis not shown)"
result = "5.00 to 6.00"

[[record]]
molecule = "CCn1c(-c2cccnc2[C@H](C)OC)c2c3cc(ccc31)-c1cc(O)cc(c1)C[C@H](NC(=O)[C@H](C(C)C)N(C)C(=O)[C@H]1CCN(C(=O)C#CC3(N(C)C)COC3)C1)C(=O)N1CCC[C@H](N1)C(=O)OCC(C)(C)C2"
result = "> 8.00"

[[record]]
molecule = "C=CC(=O)N1CCC(C(=O)N(C)[C@H](C(=O)N[C@H]2Cc3cc(O)cc(c3)-c3ccc4c(c3)c(c(-c3cccnc3[C@H](C)OC)n4CC)CC(C)(C)COC(=O)[C@@H]3CCCN(N3)C2=O)C(C)C)CC1 (atropisomer, axis not shown)"
result = "7.00 to 8.00"

[[record]]
molecule = "CCn1c(-c2cccnc2[C@H](C)OC)c2c3cc(ccc31)-c1cccc(c1)C[C@H](NC(=O)[C@H](C(C)C)N(C)C(=O)[C@@H]1CCN(C(=O)C#CC(C)(C)N3CCC3)C1)C(=O)N1CCC[C@H](N1)C(=O)OCC(C)(C)C2"
result = "7.00 to 8.00"

[[record]]
molecule = "CCn1c(-c2cccnc2[C@H](C)OC)c2c3cc(ccc31)-c1cccc(c1)C[C@H](NC(=O)[C@H](C(C)C)N1CC[C@@]3(CCN(C(=O)C#C[C@H]4COCCN4C)C3)C1=O)C(=O)N1CCC[C@H](N1)C(=O)OCC(C)(C)C2 (atropisomer, axis not shown)"
result = "> 8.00"

[[record]]
molecule = "C=CC(=O)N1CC[C@H](C(=O)N(C)[C@H](C(=O)N[C@H]2Cc3cc(O)cc(c3)-c3ccc4nc(-c5cccnc5[C@H](C)OC)n(c4c3)CC(C)(C)COC(=O)[C@@H]3CCCN(N3)C2=O)C(C)C)C1"
result = "5.00 to 6.00"

[[record]]
molecule = "CO[C@@H](COC1CN(C(=O)C#CC(C)(C)N(C)C)C1)C(=O)N[C@H]1Cc2coc(n2)-c2ccc3c(c2)c(c(-c2cccnc2[C@H](C)OC)n3CC(F)(F)F)CC(C)(C)COC(=O)[C@@H]2CCCN(N2)C1=O (atropisomer, axis not shown)"
result = "> 8.00"

[[record]]
molecule = "CCn1c(-c2cccnc2[C@H](C)OC)c2c3cc(ccc31)-c1csc(n1)C[C@H](NC(=O)[C@H](C(C)C)N(C)C(=O)N1CCC3(CC1)CN(C(=O)/C=C/CF)C3)C(=O)N1CCC[C@H](N1)C(=O)OCC(C)(C)C2 (atropisomer, axis not shown)"
result = "7.00 to 8.00"

[[record]]
molecule = "CO[C@@H](C)c1ncccc1-c1c2c3cc(ccc3n1CC(F)(F)F)-c1csc(n1)C[C@H](NC(=O)[C@@H](COC1CN(C(=O)C#CC(C)(C)N(C)C)C1)C(C)C)C(=O)N1CCC[C@H](N1)C(=O)OCC(C)(C)C2 (atropisomer, axis not shown)"
result = "> 8.00"

[[record]]
molecule = "C=CC(=O)N1CC[C@@H]2[C@H](C1)CN2C(=O)N(C)[C@H](C(=O)N[C@H]1Cc2nc(cs2)-c2ccc3c(c2)c(c(-c2cccnc2[C@H](C)OC)n3CC)CC(C)(C)COC(=O)[C@@H]2CCCN(N2)C1=O)C(C)C (atropisomer, axis not shown)"
result = "6.00 to 7.00"

[[record]]
molecule = "CCn1c(-c2cccnc2[C@H](C)OC)c2c3cc(ccc31)-c1cccc(c1)C[C@H](NC(=O)[C@@H](COC1CN(C(=O)C#CC(C)(C)N3CCC3)C1)C(C)C)C(=O)N1CCC[C@H](N1)C(=O)OCC(C)(C)C2 (atropisomer, axis not shown)"
result = "> 8.00"

[[record]]
molecule = "C=CC(=O)N1CC[C@H](C(=O)N2CCCCC[C@H]2C(=O)N[C@H]2Cc3nc(cs3)-c3ccc4c(c3)c(c(-c3cccnc3[C@H](C)OC)n4CC)CC(C)(C)COC(=O)[C@@H]3CCCN(N3)C2=O)C1 (atropisomer, axis not shown)"
result = "6.00 to 7.00"

[[record]]
molecule = "CCn1c(-c2cccnc2[C@H](C)OC)c2c3cc(ccc31)-c1cccc(c1)C[C@H](NC(=O)[C@H](C(C)C)N1CC[C@]3(CCN(C(=O)C#C[C@H]4COCCN4C4COC4)C3)C1=O)C(=O)N1CCC[C@H](N1)C(=O)OCC(C)(C)C2 (atropisomer, axis not shown)"
result = "7.00 to 8.00"

[[record]]
molecule = "CO[C@@H](C)c1ncccc1-c1c2c3cc(ccc3n1CC(F)(F)F)-c1csc(n1)C[C@H](NC(=O)[C@H](C(C)C)N(C)C(=O)N1C[C@@H]3OCCN(C(=O)/C=C/CF)[C@@H]3C1)C(=O)N1CCC[C@H](N1)C(=O)OCC(C)(C)C2 (atropisomer, axis not shown)"
result = "6.00 to 7.00"


Value source: patent US11566007B2
